Target: human mGlu4 receptor (Homo sapiens (Human), UniProt Q14833)
Sequence (Q14833 33-912): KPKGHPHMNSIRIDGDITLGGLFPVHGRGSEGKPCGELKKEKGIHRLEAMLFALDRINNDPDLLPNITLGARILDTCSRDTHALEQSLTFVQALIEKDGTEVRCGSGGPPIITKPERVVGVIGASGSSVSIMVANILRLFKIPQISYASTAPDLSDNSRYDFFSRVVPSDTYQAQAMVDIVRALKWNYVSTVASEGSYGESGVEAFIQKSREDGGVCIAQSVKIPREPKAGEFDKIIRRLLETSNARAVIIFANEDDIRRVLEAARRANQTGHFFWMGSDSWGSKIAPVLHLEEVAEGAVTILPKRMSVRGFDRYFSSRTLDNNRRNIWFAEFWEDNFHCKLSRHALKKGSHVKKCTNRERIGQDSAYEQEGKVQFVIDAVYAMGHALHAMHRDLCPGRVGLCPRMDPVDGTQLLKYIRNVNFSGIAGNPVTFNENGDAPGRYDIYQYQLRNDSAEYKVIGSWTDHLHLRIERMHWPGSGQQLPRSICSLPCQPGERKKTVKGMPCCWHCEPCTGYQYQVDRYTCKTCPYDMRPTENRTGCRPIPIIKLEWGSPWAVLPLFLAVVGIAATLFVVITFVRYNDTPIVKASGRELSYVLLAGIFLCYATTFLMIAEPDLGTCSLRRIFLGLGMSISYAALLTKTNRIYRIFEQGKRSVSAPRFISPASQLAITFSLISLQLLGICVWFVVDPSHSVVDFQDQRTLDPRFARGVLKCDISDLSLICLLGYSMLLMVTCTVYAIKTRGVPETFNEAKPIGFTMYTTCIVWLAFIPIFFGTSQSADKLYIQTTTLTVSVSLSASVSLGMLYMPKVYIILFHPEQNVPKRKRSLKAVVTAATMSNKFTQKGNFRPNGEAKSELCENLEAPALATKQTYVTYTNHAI
Test: Ca2+ mobilization in vitro assay on recombinant human mGlu4 expressed in HEK293 cells (mGlu4 PAM)
Format: cell-based
Settings: HEK293 cells stably expressing human mGlu4; L-AP4 added at EC20; read-out: EC50 (nM) mGlu4PAM
Here the recorded EC50 is given for each entry.
parameterMeasured: EC50 (nM)

>>> valuemeasured("CC(C)n1c(=O)n(-c2c(F)cc(C#Cc3ccccc3)cc2F)c(=O)c2nsnc21")
23
>>> valuemeasured("Cn1c(=O)n(-c2ccc(C#Cc3ccccc3)cc2Cl)c(=O)c2cccnc21")
222
>>> valuemeasured("Cn1c(=O)n(-c2c(F)cc(C#Cc3ccccc3)cc2F)c(=O)c2cccnc21")
89
>>> valuemeasured("CC(C)n1c(=O)n(-c2ccc(C#Cc3ccccc3)cc2Cl)c(=O)c2ccccc21")
57
>>> valuemeasured("CC(C)n1c(=O)n(-c2ccc(C#Cc3ccccc3)cc2Cl)c(=O)c2nccnc21")
52
>>> valuemeasured("Cn1cc2c(=O)n(-c3c(F)cc(C#Cc4ccccc4)cc3F)c(=O)n(C)c2n1")
137
>>> valuemeasured("Cn1c(=O)n(-c2ccc(C#Cc3ccccc3)cc2Cl)c(=O)c2ncccc21")
308
>>> valuemeasured("Cc1cccc2c1c(=O)n(-c1ccc(C#Cc3ccccc3)cc1Cl)c(=O)n2C")
231

###

Biological target: UniProtKB Q14833
Experiment: Ca2+ mobilization in vitro assay on recombinant human mGlu4 expressed in HEK293 cells (mGlu4 PAM)
Type: cell-based
Conditions: maximal response in % of the maximal stimulatory effect obtained with saturating concentrations of L-AP4
Description: Determination of EC50 Values Using a Ca2+ Mobilization In Vitro Assay on Recombinant Human mGlu4 Expressed in HEK293 Cells: […] Responses were measured as peak increase in fluorescence minus basal (i.e. fluorescence without addition of L-AP4), normalized to the maximal stimulatory effect obtained with saturating concentrations of L-AP4. […]
parameterMeasured: Eff. (%)

>>> valuemeasured("O=c1[nH]c2ncccc2c(=O)n1-c1ccc(C#Cc2ccccc2)cc1Cl [Example 6]")
104
>>> valuemeasured("Cn1c(=O)n(-c2ccc(C#Cc3ccccc3)cc2Cl)c(=O)c2cnccc21 [Example 10]")
180
>>> valuemeasured("Cc1ccc2c(=O)n(-c3c(F)cc(C#Cc4ccccc4)cc3F)c(=O)n(C)c2c1 [Example 26]")
108
>>> valuemeasured("Cc1cccc2c(=O)n(-c3c(F)cc(C#Cc4cccnc4)cc3F)c(=O)n(C)c12 [Example 73]")
197
>>> valuemeasured("CC(C)n1c(=O)n(-c2c(F)cc(C#Cc3cccnc3)cc2F)c(=O)c2nn(C)cc21 [Example 57]")
134
>>> valuemeasured("Cn1c(=O)n(-c2c(F)cc(C#Cc3ccccc3)cc2F)c(=O)c2ccccc21 [Example 23]")
168
>>> valuemeasured("CCc1cccc2c(=O)n(-c3ccc(C#Cc4ccccc4)cc3Cl)c(=O)n(C)c12 [Example 8]")
100
>>> valuemeasured("O=c1c2cccc3c2n(c(=O)n1-c1c(F)cc(C#Cc2cccnc2)cc1F)CC3 [Example 30]")
89
>>> valuemeasured("Cn1ncc2c1c(=O)n(-c1c(F)cc(C#Cc3ccccc3)cc1F)c(=O)n2C [Example 34]")
85
>>> valuemeasured("Cn1c(=O)n(-c2ccc(C#Cc3ccccc3)cc2Cl)c(=O)c2ncccc21 [Example 9]")
167
>>> valuemeasured("Cn1c(=O)n(-c2c(F)cc(C#Cc3ccccc3)cc2F)c(=O)c2nsnc21 [Example 39]")
107
>>> valuemeasured("CC(C)n1c(=O)n(-c2c(F)cc(C#Cc3ccccc3)cc2F)c(=O)c2cccnc21 [Example 37]")
73
>>> valuemeasured("O=c1[nH]c2ncsc2c(=O)n1-c1c(F)cc(C#Cc2ccccc2)cc1F [Example 31]")
85
>>> valuemeasured("CC(C)n1c(=O)n(-c2ncc(C#Cc3ccccc3)cc2F)c(=O)c2nn(C)cc21 [Example 56]")
120
>>> valuemeasured("CC(C)n1c(=O)n(-c2c(F)cc(C#Cc3ccccc3)cc2F)c(=O)c2c1cnn2C [Example 36]")
89
>>> valuemeasured("O=c1[nH]c2ncncc2c(=O)n1-c1ccc(C#Cc2ccccc2)cc1Cl [Example 16]")
98
>>> valuemeasured("O=c1c2cccc3c2n(c(=O)n1-c1ncc(C#Cc2ccccc2)cc1Cl)CC3 [Example 47]")
110

###

Molecular target: human mGlu4 receptor (Homo sapiens (Human), UniProt Q14833)
Experiment: Ca2+ mobilization in vitro assay on recombinant human mGlu4 expressed in HEK293 cells (mGlu4 PAM)
Type: cell-based
Settings: maximal response in % of the maximal stimulatory effect obtained with saturating concentrations of L-AP4
parameterMeasured: Eff. (%)

>>> valuemeasured("Cn1c(=O)n(-c2ccc(C#Cc3ccccc3)cc2Cl)c(=O)c2scnc21 [Example 52]")
"110%"
>>> valuemeasured("Cn1cnc2c1c(=O)n(-c1c(F)cc(C#Cc3ccccc3)cc1F)c(=O)n2C [Example 69]")
"113%"
>>> valuemeasured("Cn1c(=O)n(-c2ccc(C#Cc3ccccc3)cc2Cl)c(=O)c2cccc(Cl)c21 [Example 3]")
"93%"
>>> valuemeasured("CC(C)n1c(=O)n(-c2ncc(C#Cc3ccccc3)cc2Cl)c(=O)c2nn(C)cc21 [Example 60]")
"150%"
>>> valuemeasured("Cc1csc2c(=O)n(-c3c(F)cc(C#Cc4cccnc4)cc3F)c(=O)n(C)c12 [Example 28]")
"86%"
>>> valuemeasured("COCCn1c(=O)n(-c2ccc(C#Cc3ccccc3)cc2Cl)c(=O)c2ccccc21 [Example 50]")
"110%"
>>> valuemeasured("Cc1csc2c(=O)n(-c3c(F)cc(C#Cc4ccccc4)cc3F)c(=O)n(C)c12 [Example 27]")
"83%"
>>> valuemeasured("Cn1cc2c(=O)n(-c3c(F)cc(C#Cc4ccccc4)cc3F)c(=O)n(C)c2n1 [Example 62]")
"145%"

###

Molecular target: human mGlu4 receptor (Homo sapiens (Human))
Test: Ca2+ mobilization in vitro assay on recombinant human mGlu4 expressed in HEK293 cells (mGlu4 PAM)
Format: cell-based
Conditions: maximal response in % of the maximal stimulatory effect obtained with saturating concentrations of L-AP4
parameterMeasured: Eff. (%)

>>> valuemeasured("Cc1cccc2c(=O)n(-c3ncc(C#Cc4ccccc4)cc3F)c(=O)n(C)c12")
111
>>> valuemeasured("O=c1c2ccccc2n(C2CCC2)c(=O)n1-c1ccc(C#Cc2ccccc2)cc1Cl")
123
>>> valuemeasured("Cn1c(=O)n(-c2ccc(C#Cc3ccccc3)cc2Cl)c(=O)c2ccc(F)c(F)c21")
73

###

// reported EC50 per item
Molecular target: human mGlu4 receptor (Homo sapiens (Human), UniProt Q14833)
Experiment: Ca2+ mobilization in vitro assay on recombinant human mGlu4 expressed in HEK293 cells (mGlu4 PAM)
Format: cell-based
Details: HEK293 cells stably expressing human mGlu4; L-AP4 added at EC20; read-out: EC50 (nM) mGlu4PAM
parameterMeasured: EC50 (nM)

>>> valuemeasured("CC(C)n1c(=O)n(-c2ccc(C#Cc3cccnc3)cc2Cl)c(=O)c2nccnc21 [Example 22]")
167
>>> valuemeasured("O=c1c2ccccc2n(C2COC2)c(=O)n1-c1c(F)cc(C#Cc2ccccc2)cc1F [Example 66]")
75
>>> valuemeasured("Cn1c(=O)n(-c2ccc(C#Cc3ccccc3)cc2Cl)c(=O)c2sc(N3CCOCC3)nc21 [Example 51]")
164
>>> valuemeasured("Cc1ccnc2c(=O)n(-c3c(F)cc(C#Cc4ccccc4)cc3F)c(=O)n(C)c12 [Example 38]")
108
>>> valuemeasured("O=c1c2cccc3c2n(c(=O)n1-c1c(F)cc(C#Cc2ccccc2)cc1F)CC3 [Example 29]")
52
>>> valuemeasured("CC(C)c1cccc2c(=O)n(-c3ccc(C#Cc4ccccc4)cc3Cl)c(=O)n(C)c12 [Example 54]")
179
